- Experimental details: in vivo
- Applied conditions: sc
Measurement label: TD50

| Compound | Assay value |
| --- | --- |
| CCN(CC)CCNC(=O)c1cc(Cl)c(N)cc1OC [METOCLOPRAMIDE, Metoclopramide, reference compound] | 30 to 38 mg/kg |

====

- Applied conditions: in vivo, sc, 200 mg/kg
Where a name gives a salt, the structure may show the parent alone.
Measurement label: Cataleptic Activity (Subcutaneous)

| Compound | Assay value |
| --- | --- |
| COc1cc(N)c(Cl)cc1C(=O)NCC1=NCCN1CC1CC1 | inactive |
| CCN1CCN=C1CNC(=O)c1cc(Cl)c(N)cc1O [Example 12, HYDROCHLORIDE] | inactive |
| CCN1CC(C)N=C1CNC(=O)c1cc(Cl)c(N)cc1OC (stereo not drawn) | inactive |
| COc1cc(N)c(Cl)cc1C(=O)NCC1=NCCN1CC1=CCCCC1 | inactive |
| COc1cc(N)c(Cl)cc1C(=O)NCC1=NCCN1Cc1ccccc1 [Example 3, Hydrochloride] | inactive |
| CCN1CCN=C1CN(C)C(=O)c1cc(Cl)c(N)cc1OC | inactive |
| CCN1CC(C)(C)N=C1CNC(=O)c1cc(Cl)c(N)cc1OC | inactive |
| CCN1CCN=C1CNC(=O)c1cc(Cl)c(N)cc1OC | inactive |
| C=CCN1CCN=C1CNC(=O)c1cc(Cl)c(N)cc1OC | inactive |

====

- Experimental details: in vivo
- Applied conditions: mouse, male mice, intravenous, as base, read-out: LD50 in mg/kg (base) intravenously
Structures can show the parent of a compound that is named as a salt.
Define the label as Satisfied when LD50 is strictly less than 40 mg/kg and as Not satisfied in all remaining cases.

| Compound | Assigned class |
| --- | --- |
| CCN1CC(C)(C)N=C1CNC(=O)c1cc(Cl)c(N)cc1OC [Example 11] | Satisfied |
| CCN1CCN=C1C(C)NC(=O)c1cc(Cl)c(N)cc1OC (centres unmarked) [Example 14] | Satisfied |
| COc1cc(N)c(Cl)cc1C(=O)NCC1=NCCN1CC1=CCCCC1 [Example 13] | Not satisfied |
| C=CCN1CCN=C1CNC(=O)c1cc(Cl)c(N)cc1OC [Example 2] | Satisfied |
| CCN1CCN=C1CNC(=O)c1cc(Cl)c(N)cc1O [Example 12, HYDROCHLORIDE] | Not satisfied |
| CCN(CC)CCNC(=O)c1cc(Cl)c(N)cc1OC [METOCLOPRAMIDE, Metoclopramide, reference compound] | Satisfied |

====

- Applied conditions: in vivo, sc, 200 mg/kg
Where a name gives a salt, the structure may show the parent alone.
Measurement label: Cataleptic Activity (Subcutaneous)

| Compound | Measurement label | Assay value |
| --- | --- | --- |
| COc1cc(N)c(Cl)cc1C(=O)NCC1=NCCN1 [Example 10] | Cataleptic Activity (Subcutaneous) | inactive |
| C=CCOc1cc(N)c(Cl)cc1C(=O)NCC1=NCCN1CC [Example 5] | Cataleptic Activity (Subcutaneous) | inactive |
| COc1cc(N)c(Cl)cc1C(=O)NCC1=NCCN1C [Example 8, HYDROCHLORIDE] | Cataleptic Activity (Subcutaneous) | inactive |

====

- Experimental details: in vivo
- Applied conditions: mouse, male mice, intravenous, as base, read-out: LD50 in mg/kg (base) intravenously
Counter-ions that a name gives are not always drawn.

| Compound | LD50 |
| --- | --- |
| C=CCOc1cc(N)c(Cl)cc1C(=O)NCC1=NCCN1CC | 25.5 to 26.1 mg/kg |
| COc1cc(N)c(Cl)cc1C(=O)NCC1=NCCN1 | 38.4 to 41.9 mg/kg |
| CCN1CCN=C1CNC(=O)c1cc(Cl)c(N)cc1OC | 27.1 to 27.2 mg/kg |
| CCN1CCN=C1CN(C)C(=O)c1cc(Cl)c(N)cc1OC | 23.4 to 24.4 mg/kg |
| COc1cc(N)c(Cl)cc1C(=O)NCC1=NCCN1Cc1ccccc1 [Example 3, Hydrochloride] | 47.8 to 48.5 mg/kg |
